# Test system: RARa homodimer (NR concentration 270 nM)
# Measurement Description: PBM binding z-score (relative to random genomic background probes); higher = stronger binding; sequences stand for … in GC…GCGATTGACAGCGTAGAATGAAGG
Parameter PBM binding z-score: see the listing below.
Keep it simple and answer with nothing but the number.

The recorded PBM binding z-score for entry ATCTCTAGGAAAAAGTTCAGTGAATCCCGAGGAT equals 1

Looking up TCTTGTAGATCACAGGTTAAGAAAGCCGAAGCCT , I see its PBM binding z-score listed as -0.789

For CGAACGAGTGCATGAGTTGATAGCAAATGCCGAT the sequence record lists PBM binding z-score as -0.713

Lab note: ACTTACGGGTCAATGAGGTTATAGCACGCGTATA gave PBM binding z-score of 1.1

* * *

Recorded PBM binding z-score by entry
# System: PPARg DBDmut:RXRa IVT, anti-PPARg (DBD mutation: PPARg1 K132A/R137A, NR concentration 270 nM, RXRa partner concentration 90 nM)
# Measurement Description: PBM binding z-score (relative to random genomic background probes); higher = stronger binding; sequences stand for … in GC…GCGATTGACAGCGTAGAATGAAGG
The reply should be a number, written without any unit.

Example entries begin here.
1. ACAGACAGGTGATGAAGGTAACTAAGGCTATCAT    0.827
2. ACAGACCGGTGATGAAGGTAACTCAGGCTATCAT    0.0593
3. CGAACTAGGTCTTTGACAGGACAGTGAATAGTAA    0.956
4. TCTAGGTGGTCAAAGGTCACACACTCGAAATGCG    1.01
5. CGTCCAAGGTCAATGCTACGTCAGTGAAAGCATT    1.41
6. CCAGACAGGTGAGAATGTAACTCAGCCTCGATTA    -1.25
7. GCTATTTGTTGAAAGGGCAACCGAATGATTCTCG    0.209
8. ATCGTAAGGTCGAGGTGAGTATAGAGAAAGGGAA    1.12
9. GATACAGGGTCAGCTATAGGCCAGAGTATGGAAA    0.261
10. TCGAGTAGGGTAGGGGCATTCAGAATGGCGTCGA    -0.123

get_value(item= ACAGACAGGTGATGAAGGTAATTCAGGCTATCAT , readout=PBM binding z-score) returns 0.823

So for CTTTACGGGTCACGAGGTTATAGCACGACGAGCG , the logged PBM binding z-score turned out to be 1.86

* * *

# Lookup of reported PBM binding z-score keyed by entry
# Tested on: PXR homodimer (NR concentration 270 nM)
# Measurement Description: PBM binding z-score (relative to random genomic background probes); higher = stronger binding; sequences stand for … in GC…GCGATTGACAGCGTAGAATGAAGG

Value of PBM binding z-score reported for the sequence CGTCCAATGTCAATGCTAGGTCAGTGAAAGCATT is -0.0465

// recorded PBM binding z-score for CCAGACAGGTGAGGAGGTAACTCAGCCTCGATTA : 0.482

Looking up CCTTCTAGGTCAATGGTCAGCTAAAGCAGCTCGC , I found its PBM binding z-score recorded as -0.321

Per the record, AGAATGAGGTTAAGATCAGGGGAACAGAATACAT has PBM binding z-score of 0.765
